The measured values listed here are drawn from ChEMBL document CHEMBL5291721.

Quick reference for AC50 among some molecules
System: cGMP-inhibited 3',5'-cyclic phosphodiesterase 3A (Homo sapiens, UniProt Q14432); also: assay procedure not described here
Sequence (Q14432 whole entry): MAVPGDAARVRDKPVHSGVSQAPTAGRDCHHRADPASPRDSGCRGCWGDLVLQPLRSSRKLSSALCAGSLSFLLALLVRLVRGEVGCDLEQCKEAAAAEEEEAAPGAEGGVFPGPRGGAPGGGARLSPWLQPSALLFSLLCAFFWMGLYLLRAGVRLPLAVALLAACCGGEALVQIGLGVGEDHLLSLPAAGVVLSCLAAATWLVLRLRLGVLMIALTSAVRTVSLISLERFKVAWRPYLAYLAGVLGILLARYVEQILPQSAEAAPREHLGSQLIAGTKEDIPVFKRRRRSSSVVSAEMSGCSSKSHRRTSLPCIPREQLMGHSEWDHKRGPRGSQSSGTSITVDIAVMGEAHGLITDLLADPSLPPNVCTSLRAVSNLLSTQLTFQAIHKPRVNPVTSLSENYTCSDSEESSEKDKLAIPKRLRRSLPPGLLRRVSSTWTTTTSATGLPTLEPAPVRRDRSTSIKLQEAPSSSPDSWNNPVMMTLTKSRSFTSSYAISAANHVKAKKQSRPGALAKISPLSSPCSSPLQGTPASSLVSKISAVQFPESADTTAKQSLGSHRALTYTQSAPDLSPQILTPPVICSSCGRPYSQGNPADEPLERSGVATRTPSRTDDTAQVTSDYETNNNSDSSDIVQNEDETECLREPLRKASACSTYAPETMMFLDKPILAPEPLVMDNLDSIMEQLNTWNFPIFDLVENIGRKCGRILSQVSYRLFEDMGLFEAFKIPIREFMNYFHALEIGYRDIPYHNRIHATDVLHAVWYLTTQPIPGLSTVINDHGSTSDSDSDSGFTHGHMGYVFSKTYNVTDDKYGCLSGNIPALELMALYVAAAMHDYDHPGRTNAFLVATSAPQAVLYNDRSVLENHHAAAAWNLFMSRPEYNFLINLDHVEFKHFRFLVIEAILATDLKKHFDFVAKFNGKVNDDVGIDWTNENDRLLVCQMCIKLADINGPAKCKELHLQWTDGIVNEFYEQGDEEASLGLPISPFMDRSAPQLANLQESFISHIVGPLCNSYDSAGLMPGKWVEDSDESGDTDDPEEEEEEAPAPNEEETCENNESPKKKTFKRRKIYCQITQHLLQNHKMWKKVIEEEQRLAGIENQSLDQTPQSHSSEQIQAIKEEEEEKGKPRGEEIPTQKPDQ
Format: functional
Measured Quantity: AC50

INSERT INTO results (molecule, system, measured_quantity, reported_value) VALUES
  ('Cc1cccc(N(C)C(=S)Oc2ccc3ccccc3c2)c1 [TOLNAFTATE]', 'cGMP-inhibited 3'',5''-cyclic phosphodiesterase 3A (Homo sapiens, UniProt Q14432)', 'AC50', '> 30 µM'),
  ('N#Cc1ccccc1-c1cc(-c2ccccn2)cn(-c2ccccc2)c1=O', 'cGMP-inhibited 3'',5''-cyclic phosphodiesterase 3A (Homo sapiens, UniProt Q14432)', 'AC50', '> 30 µM'),
  ('CN1[C@@H]2CC[C@H]1C[C@@H](OC(=O)c1c[nH]c3ccccc13)C2', 'cGMP-inhibited 3'',5''-cyclic phosphodiesterase 3A (Homo sapiens, UniProt Q14432)', 'AC50', '> 30 µM'),
  ('CNC(=O)c1cc(Oc2ccc(NC(=O)Nc3ccc(Cl)c(C(F)(F)F)c3)c(F)c2)ccn1', 'cGMP-inhibited 3'',5''-cyclic phosphodiesterase 3A (Homo sapiens, UniProt Q14432)', 'AC50', '> 30 µM'),
  ('CC(=O)OCC(CCn1cnc2cnc(N)nc21)COC(C)=O', 'cGMP-inhibited 3'',5''-cyclic phosphodiesterase 3A (Homo sapiens, UniProt Q14432)', 'AC50', '> 30 µM');

###

System: Prostaglandin G/H synthase 1 (Homo sapiens); also: assay procedure not described here
Sequence (P23219 whole entry): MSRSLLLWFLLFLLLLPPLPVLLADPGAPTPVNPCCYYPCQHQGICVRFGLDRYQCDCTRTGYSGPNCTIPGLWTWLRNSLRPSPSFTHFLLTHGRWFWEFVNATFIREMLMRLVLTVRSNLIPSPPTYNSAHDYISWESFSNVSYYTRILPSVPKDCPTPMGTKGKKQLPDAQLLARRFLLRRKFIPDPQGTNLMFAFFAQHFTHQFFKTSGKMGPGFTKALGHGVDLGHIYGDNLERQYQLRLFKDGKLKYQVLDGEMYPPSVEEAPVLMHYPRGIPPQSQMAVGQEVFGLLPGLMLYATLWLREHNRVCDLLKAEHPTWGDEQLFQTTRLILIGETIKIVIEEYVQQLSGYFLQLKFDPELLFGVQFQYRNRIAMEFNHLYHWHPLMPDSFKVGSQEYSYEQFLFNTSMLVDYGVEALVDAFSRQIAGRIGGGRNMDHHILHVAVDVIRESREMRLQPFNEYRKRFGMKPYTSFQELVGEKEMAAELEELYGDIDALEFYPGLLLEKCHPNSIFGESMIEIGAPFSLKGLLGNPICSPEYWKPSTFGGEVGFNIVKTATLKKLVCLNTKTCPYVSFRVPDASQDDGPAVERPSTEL
Assay type: functional
Measured Quantity: AC50

INSERT INTO measurements (compound, system, measured_quantity, reported_value) VALUES
  ('CO/N=C(\C(=O)N[C@@H]1C(=O)N2C(C(=O)[O-])=C(C[n+]3cccc4c3CCC4)CS[C@H]12)c1csc(N)n1 [CEFPIROME]', 'Prostaglandin G/H synthase 1 (Homo sapiens)', 'AC50', '> 30 µM'),
  ('CC(=O)Oc1ccccc1C(=O)Nc1ncc([N+](=O)[O-])s1 [NITAZOXANIDE]', 'Prostaglandin G/H synthase 1 (Homo sapiens)', 'AC50', '9.53 µM'),
  ('O=[N+]([O-])O[C@H]1CO[C@H]2[C@@H]1OC[C@H]2O[N+](=O)[O-] [ISOSORBIDE DINITRATE]', 'Prostaglandin G/H synthase 1 (Homo sapiens)', 'AC50', '> 30 µM'),
  ('CCOc1ccc2ccccc2c1C(=O)N[C@@H]1C(=O)N2[C@@H]1SC(C)(C)[C@@H]2C(=O)O [NAFCILLIN]', 'Prostaglandin G/H synthase 1 (Homo sapiens)', 'AC50', '> 30 µM'),
  ('CCCCCCCCNC(C)C(O)c1ccc(SC(C)C)cc1 (configuration not stated) [SULOCTIDIL]', 'Prostaglandin G/H synthase 1 (Homo sapiens)', 'AC50', '15.5 µM'),
  ('Cc1cc(CCN2CCN(c3cccc(Cl)c3)CC2)n[nH]1 [MEPIPRAZOLE]', 'Prostaglandin G/H synthase 1 (Homo sapiens)', 'AC50', '> 30 µM'),
  ('CCCCCCCCCCCCCCCC(=O)OC/C=C(C)/C=C/C=C(C)/C=C/C1=C(C)CCCC1(C)C [VITAMIN A PALMITATE]', 'Prostaglandin G/H synthase 1 (Homo sapiens)', 'AC50', '> 30 µM'),
  ('CNC(=O)c1cc(Oc2ccc(NC(=O)Nc3ccc(Cl)c(C(F)(F)F)c3)c(F)c2)ccn1 [REGORAFENIB]', 'Prostaglandin G/H synthase 1 (Homo sapiens)', 'AC50', '17.5 µM'),
  ('C[C@@H](O)[C@H]1C(=O)N2C(C(=O)O)=C([C@H]3CCCO3)S[C@H]12 [FAROPENEM]', 'Prostaglandin G/H synthase 1 (Homo sapiens)', 'AC50', '14.7 µM'),
  ('CNC[C@H](O)c1cccc(O)c1 [PHENYLEPHRINE]', 'Prostaglandin G/H synthase 1 (Homo sapiens)', 'AC50', '> 30 µM'),
  ('N[C@@H](Cc1c[nH]c2ccc(O)cc12)C(=O)O [OXITRIPTAN]', 'Prostaglandin G/H synthase 1 (Homo sapiens)', 'AC50', '> 30 µM'),
  ('CC(C)(C)C(=O)NCCCC(=O)O [PIVAGABINE]', 'Prostaglandin G/H synthase 1 (Homo sapiens)', 'AC50', '> 30 µM');
